Target: T1, human DLL3 (ACRO, DLL3-H52H4) (human, UniProt Q9NYJ7 27-492)
T1 construct: Bought
T1 sequence: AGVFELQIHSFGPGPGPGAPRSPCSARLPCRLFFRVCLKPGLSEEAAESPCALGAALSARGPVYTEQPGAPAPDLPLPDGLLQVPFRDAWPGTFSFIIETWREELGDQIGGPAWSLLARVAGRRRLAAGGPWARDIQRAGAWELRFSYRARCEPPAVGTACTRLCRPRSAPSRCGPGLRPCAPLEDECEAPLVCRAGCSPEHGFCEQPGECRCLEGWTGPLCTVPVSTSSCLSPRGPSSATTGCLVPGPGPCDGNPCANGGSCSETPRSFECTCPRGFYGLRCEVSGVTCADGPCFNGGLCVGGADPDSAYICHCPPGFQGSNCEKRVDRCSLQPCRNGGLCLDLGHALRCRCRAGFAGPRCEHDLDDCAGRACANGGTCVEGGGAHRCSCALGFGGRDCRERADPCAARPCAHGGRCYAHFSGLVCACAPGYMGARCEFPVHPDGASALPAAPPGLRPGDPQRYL
Experiment: SPR Biacore 8K, Ab captured on Protein A
From the text: Test antibodies were affinity-captured with a Protein A biosensor chip (Cat. #29127556, Cytiva) for 18 seconds, and then the antigens human DLL3 (ACRO, DLL3-H52H4), cynomolgus monkey DLL3 (KACTUS, DLL-RM103), mouse DLL3 (KACTUS, DLL-MM103), human CD3D&3E (ACRO, CDD-H52W1), and monkey CD3D&3E (ACRO, CDD-C52W4) were allowed to flow through the surface of the chip for 180 seconds, followed by 600 seconds of dissociation. […]
readoutName: kon
I'd appreciate it if you wrote the number followed by its unit.

[
  {
    "binder": "hu30L1H4 (antibody, human IgG1, kappa, V domains shown) VH: EVRLVQSGAEVKKPGASVKVSCKASGYTFTDYYMNWVRQAPGQSLEWMGIINPYSGDTSYNQKFRGRVTLTVDKSASTAYMELSSLRSEDTAVYYCARYHYGPHLEGYFDVWGQGTTVTVSS VL: DIVMTQSPDSLAVSLGERATINCKASENVGYVSWYQQKPGQPPKLLIYGASNRYTGVPDRFSGSGSGTDFTLTISSLQAEDVAVYYCGQSYSYPLTFGQGTKLEIKR",
    "recordedMeasurement": "905000 M⁻¹ s⁻¹"
  }
]

Prompt: Which kon value is on record for hu30L2H4 (antibody, human IgG1, kappa, V domains shown) VH: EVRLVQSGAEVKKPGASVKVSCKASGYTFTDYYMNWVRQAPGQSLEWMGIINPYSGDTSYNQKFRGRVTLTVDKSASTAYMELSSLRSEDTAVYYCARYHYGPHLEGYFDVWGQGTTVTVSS VL: DIVMTQSPDSLAVSLGERATINCKASENVGYVSWYQQKPGQPPKLLIYGASNRYTGVPDRFSGSGSATDFTLTISSLQAEDVAVYHCGQSYSYPLTFGQGTKLEIKR ?
Response: 966000 M⁻¹ s⁻¹

Data origin: patent US20250376519A1
